Reference for the values: ChEMBL document CHEMBL5154725

# test.name: Inhibition of 6-His tagged-G4SG4 fused ZIKV NS2B (49 to 95 residues) R95A mutant-NS3 (1 to 170 residue) R29G mutant expressed in Escherichia coli BL21 (DE3) using Bz-Nle-K-RR-AMC substrate preincubated for 10 mins followed by substrate addition and measured after 30 mins by fluorescence assay
# Set-up: species or system Zika virus
pIC50: −log10 of the molar value.
Binary classification by pIC50, with 5 as an inclusive lower bound for TRUE; all other cases are FALSE.

NCCCC[C@H](NC(=O)[C@H](CCCCN)NS(=O)(=O)Cc1ccccc1)C(=O)N[C@H](C(=O)NCc1ccccc1)c1ccc(OCc2ccc(C(F)(F)F)cc2)cc1 = TRUE
N=C(N)NCCC[C@H](NC(=O)c1cccs1)C(=O)N[C@@H](CCCCN)C(=O)N[C@H](C(N)=O)c1ccc(OCc2ccc3[nH]ncc3c2)cc1 = TRUE
N=C(N)CCCC[C@H](NC(=O)[C@H](CCCCN)NC(=O)[C@H](Cc1ccc(C(N)=O)cc1)NC(=O)Cc1ccccc1)C(N)=O = FALSE
CNC(=O)[C@@H](NC(=O)[C@H](CCCCN)NC(=O)[C@H](CCCCN)NC(=O)Cc1ccccc1)c1ccc(OCc2ccc(C(F)(F)F)cc2)cc1 = TRUE
N=C(N)NCCC[C@H](NC(=O)c1cccs1)C(=O)N[C@@H](CCCCN)C(=O)N[C@H](C(N)=O)c1ccc(OCc2ccccc2C(F)(F)F)cc1 = TRUE

----------
# Tested on: Zika virus
# test.name: Inhibition of 6-His tagged-G4SG4 fused ZIKV NS2B (49 to 95 residues) R95A mutant-NS3 (1 to 170 residue) R29G mutant expressed in Escherichia coli BL21 (DE3) using Bz-Nle-K-RR-AMC substrate at 100 uM preincubated for 10 mins followed by substrate addition and measured after 30 mins by fluorescence assay relative to control
# experimental.setup: time 40.0 min
Non-standard residues stand in square brackets, D forms with d. Residues, ends and D or L forms follow the SMILES beside them. *: point of attachment. Phe(4-CH2NH2) = NCc1ccc(C[C@H](N)C(=O)O)cc1; PhAc = O=C(Cc1ccccc1)*
observation.type: inhibition (%)

N=C(N)NCCC[C@H](NC(=O)[C@H](CCCCN)NC(=O)CNC(=O)Cc1ccccc1)C(=O)O (PhAc-Gly-Lys-Arg-OH) = 40
N=C(N)NCCC[C@H](NC(=O)[C@H](Cc1ccc(CN)cc1)NC(=O)[C@H](CCCCN)NC(=O)Cc1ccccc1)C(N)=O (PhAc-Lys-[Phe(4-CH2NH2)]-Arg-NH2) = 66
CC(=O)N[C@H](C(=O)NCC(=O)N[C@@H](CCCCN)C(=O)N[C@@H](CCCNC(=N)N)C(=O)O)[C@@H](C)O (Ac-TGKR-OH) = 40
N=C(N)NCCC[C@H](NC(=O)[C@H](CCCCN)NC(=O)CNC(=O)Cc1ccccc1)C(N)=O (PhAc-Gly-Lys-Arg-NH2) = 40
CC(=O)N[C@H](C(=O)NCC(=O)N[C@@H](CCCCN)C(=O)N[C@@H](CCCNC(=N)N)C(N)=O)[C@@H](C)O (Ac-TGKR-NH2) = 40

----------
# test.name: Inhibition of 6-His tagged-G4SG4 fused ZIKV NS2B (49 to 95 residues) R95A mutant-NS3 (1 to 170 residue) R29G mutant expressed in Escherichia coli BL21 (DE3) using Bz-Nle-K-RR-AMC substrate preincubated for 10 mins followed by substrate addition and measured after 30 mins by fluorescence assay
# Design: species or system Zika virus
Residues, ends and D or L forms follow the SMILES beside them. *: point of attachment. PhAc = O=C(Cc1ccccc1)*
observation.type: IC50 (nM)

NCCCC[C@H](NC(=O)Cc1ccccc1)C(=O)N[C@@H](CCCCN)C(=O)N[C@H](C(=O)NCc1ccc2c(c1)OCO2)c1ccc(OCc2ccc(C(F)(F)F)cc2)cc1 = 60
NCCCC[C@H](NC(=O)Cc1ccc(Cl)c(Cl)c1)C(=O)N[C@@H](CCCCN)C(=O)N[C@H](C(=O)NCc1ccccc1)c1ccc(OCc2ccc(C(F)(F)F)cc2)cc1 = 170
N=C(N)NCCC[C@H](NC(=O)c1cccs1)C(=O)N[C@@H](CCCCN)C(=O)N[C@H](C(N)=O)c1ccc(OCC2CCCCC2)cc1 = 10800
NCCCC[C@H](NC(=O)Cc1ccccc1)C(=O)N[C@@H](CCCCN)C(=O)N[C@H](C(=O)NCc1ccccc1)c1ccc(OCc2ccc(C(F)(F)F)cc2)cc1 = 90
N=C(N)NCCC[C@H](NC(=O)[C@H](CCCCN)NC(=O)[C@H](Cc1ccccc1)NC(=O)Cc1ccccc1)C(N)=O (PhAc-Phe-Lys-Arg-NH2) = 35000

----------
# test.name: Inhibition of 6-His tagged-G4SG4 fused ZIKV NS2B (49 to 95 residues) R95A mutant-NS3 (1 to 170 residue) R29G mutant expressed in Escherichia coli BL21 (DE3) using Bz-Nle-K-RR-AMC substrate preincubated for 10 mins followed by substrate addition and measured after 30 mins by fluorescence assay
# Design: species or system Zika virus
Non-standard residues stand in square brackets, D forms with d. Residues, ends and D or L forms follow the SMILES beside them. *: point of attachment. Lys(Me2) = CN(C)CCCC[C@H](N)C(=O)O; PhAc = O=C(Cc1ccccc1)*
Please assign Not met whenever IC50 is at or above 8 µM, and Met whenever it is below.

N=C(N)NCCC[C@H](NC(=O)c1cccs1)C(=O)N[C@@H](CCCCN)C(=O)NC(C(N)=O)c1cccc(OCc2ccc(C(F)(F)F)cc2)c1 (mixture of isomers) = Met
NCCCC[C@H](NC(=O)Cc1ccccc1)C(=O)N[C@@H](CCCCN)C(=O)N[C@H](C(=O)NCc1cc(Cl)cc(Cl)c1)c1ccccc1 = Met
N=C(N)NCCC[C@H](NC(=O)[C@H](CCCCN)NC(=O)[C@H](CCCCN)NC(=O)C(F)c1ccccc1)C(N)=O (mixture of isomers) = Met
N=C(N)NCCC[C@H](NC(=O)c1cccs1)C(=O)N[C@@H](CCCCN)C(=O)N[C@H](C(N)=O)c1ccc(OC2CCc3ccccc32)cc1 (mixture of isomers) = Met
CC(=O)N[C@@H](CCCCN)C(=O)N[C@@H](CCCCN)C(=O)N[C@H](C(=O)NCc1ccccc1)c1ccc(OCc2ccc(C(F)(F)F)cc2)cc1 = Met
N#Cc1ccc(COc2ccc([C@H](NC(=O)[C@H](CCCCN)NC(=O)[C@H](CCCNC(=N)N)NC(=O)c3cccs3)C(N)=O)cc2)cc1 = Not met
N=C(N)NCCC[C@H](NC(=O)c1cccs1)C(=O)N[C@@H](CCCCN)C(=O)N[C@H](C(N)=O)c1ccc(OCCN2CCOCC2)cc1 = Not met
CN(C)CCCC[C@H](NC(=O)[C@H](CCCCN)NC(=O)Cc1ccccc1)C(=O)N[C@@H](CCCNC(=N)N)C(N)=O (PhAc-Lys-[Lys(Me2)]-Arg-NH2) = Not met
N=C(N)NCCC[C@H](NC(=O)c1cccs1)C(=O)N[C@@H](CCCCN)C(=O)N[C@H](C(=O)NCc1ccccc1)c1ccc(OCc2ccc(C(F)(F)F)cc2)cc1 = Met

----------
# test.name: Inhibition of 6-His tagged-G4SG4 fused ZIKV NS2B (49 to 95 residues) R95A mutant-NS3 (1 to 170 residue) R29G mutant expressed in Escherichia coli BL21 (DE3) using Bz-Nle-K-RR-AMC substrate preincubated for 10 mins followed by substrate addition and measured after 30 mins by fluorescence assay
# Design: species or system Zika virus
Residues, ends and D or L forms follow the SMILES beside them. *: point of attachment. Hydrocinnamoyl = O=C(CCc1ccccc1)*
observation.type: IC50 (µM)

N=C(N)NCCC[C@H](NC(=O)[C@H](CCCCN)NC(=O)[C@H](CCCCN)NC(=O)CCc1ccccc1)C(N)=O (Hydrocinnamoyl-Lys-Lys-Arg-NH2) = 9.35
CC(NC(=O)[C@H](CCCCN)NC(=O)[C@H](CCCNC(=N)N)NC(=O)c1cccs1)c1ccc(OCc2ccc(C(F)(F)F)cc2)cc1 (mixture of isomers) = 10.9
N=C(N)NCCC[C@H](NC(=O)[C@H](CCCCN)NC(=O)[C@H](CCCCN)NC(=O)Cc1cccs1)C(N)=O = 16.5

----------
# test.name: Inhibition of 6-His tagged-G4SG4 fused ZIKV NS2B (49 to 95 residues) R95A mutant-NS3 (1 to 170 residue) R29G mutant expressed in Escherichia coli BL21 (DE3) using Bz-Nle-K-RR-AMC substrate preincubated for 10 mins followed by substrate addition and measured after 30 mins by fluorescence assay
# Set-up: species or system Zika virus
Non-standard residues stand in square brackets, D forms with d. Residues, ends and D or L forms follow the SMILES beside them. *: point of attachment. Phe(4-NH2) = Nc1ccc(C[C@H](N)C(=O)O)cc1; Cit = NC(=O)NCCC[C@H](N)C(=O)O; hLys = NCCCCC[C@H](N)C(=O)O; PhAc = O=C(Cc1ccccc1)*
Classification by IC50 | ranges: lower bin: < 0.3 µM; middle bin: ≥ 0.3 µM and < 8 µM; upper bin: ≥ 8 µM

N=C(N)NCCC[C@H](NC(=O)[C@H](Cc1ccc(N)cc1)NC(=O)[C@H](CCCCN)NC(=O)Cc1ccccc1)C(N)=O (PhAc-Lys-[Phe(4-NH2)]-Arg-NH2) = upper bin
NCCCC[C@H](NC(=O)c1ccccc1)C(=O)N[C@@H](CCCCN)C(=O)N[C@H](C(=O)NCc1ccccc1)c1ccc(OCc2ccc(C(F)(F)F)cc2)cc1 = lower bin
CN(C)CCOc1ccc([C@H](NC(=O)[C@H](CCCCN)NC(=O)[C@H](CCCNC(=N)N)NC(=O)c2cccs2)C(N)=O)cc1 = middle bin
N=C(N)NCCC[C@H](NC(=O)[C@H](CCCCCN)NC(=O)[C@H](CCCCN)NC(=O)Cc1ccccc1)C(N)=O (PhAc-Lys-[hLys]-Arg-NH2) = middle bin
N=C(N)NCCC[C@H](NC(=O)c1cccs1)C(=O)N[C@@H](CCCCN)C(=O)N[C@H](C(N)=O)c1ccc(OCc2ccccc2)cc1 = middle bin
N=C(N)NCCC[C@H](NC(=O)[C@H](CCCNC(N)=O)NC(=O)[C@H](CCCCN)NC(=O)Cc1ccccc1)C(N)=O (PhAc-Lys-[Cit]-Arg-NH2) = upper bin
N=C(N)NCCC[C@H](NC(=O)[C@H](CCCCN)NC(=O)[C@H](CCCCN)NC(=O)Cc1ccccc1)C(=O)NCc1ccncc1 = upper bin
NCCCC[C@H](NC(=O)Cc1ccccc1)C(=O)N[C@@H](CCCCN)C(=O)N[C@H](C(=O)NCc1ccc(OCc2ccc(C(F)(F)F)cc2)cc1)c1ccccc1 = lower bin
COc1ccc([C@H](NC(=O)[C@H](CCCCN)NC(=O)[C@H](CCCNC(=N)N)NC(=O)c2cccs2)C(N)=O)cc1 = upper bin
CN(C)Cc1ccc(CNC(=O)[C@H](CCCNC(=N)N)NC(=O)[C@H](CCCCN)NC(=O)[C@H](CCCCN)NC(=O)Cc2ccccc2)cc1 = middle bin
COc1ccc(CC(=O)N[C@@H](CCCCN)C(=O)N[C@@H](CCCCN)C(=O)N[C@H](C(=O)NCc2ccccc2)c2ccc(OCc3ccc(C(F)(F)F)cc3)cc2)cc1 = lower bin
